- PROTOCOL TEXT: Clearance study, liver microsomes (rats)
- TEST SETTINGS: rat, pH 7.4
Flag rule - microsomal CLint at 1 μM less than 80 µL/min/mg flags Condition met; the remaining entries get Condition not met.

Sample answers from the record:
Data request: Decide: microsomal CLint at 1 μM of CCCCNC(=O)c1ccc2c(c1)N=C(c1ccc(Cl)s1)c1cc(F)ccc1S2 [drawing 1710] strictly below 80 µL/min/mg?
Data returned: Condition not met

Data request: Decide: microsomal CLint at 1 μM of O=C(NCc1cccc(Cl)c1)c1ccc2c(c1)N=C(c1ccc(Cl)cc1)c1cc(F)ccc1S2 [drawing 1686] strictly below 80 µL/min/mg?
Data returned: Condition met

Data request: Decide: microsomal CLint at 1 μM of CC(C)CNC(=O)c1ccc2c(c1)N=C(c1ccc(Cl)cc1F)c1ccccc1S2 [drawing 1677] strictly below 80 µL/min/mg?
Data returned: Condition met

Now, please, on to the next compound.
Data request: Decide: microsomal CLint at 1 μM of COc1cccc(C2=Nc3cc(C(=O)NCCCC(F)(F)F)ccc3Sc3ccccc32)n1 [drawing 1667] strictly below 80 µL/min/mg?
Data returned: Condition not met
